test: yeast display, Sf9 membrane polyspecificity reagent, FACS + sequencing; frameworks hold sequencing errors
metric name: polyreactivity (PSR sort gate)

Example entries begin here.
[[record]]
sequence_chain = "QVQLVESGGGLVQAGGSLRLSCAASGSTFAYNTMGWYRQAPGKERELVAAISQRGGSTYADSVKGRFTISRDNAKNTVYLQMNSLKPEETAVYYCAAVGYTYKFDYWGQGTQVTVSS"
result = "low polyreactivity"

[[record]]
sequence_chain = "QVQLVESGGGLVQAGGSLRLSCAASGSTFSDYVMGWYRQAPGKERELVAAISWSGDRTYYADSVKGRFTISRDNAKNTVYLQMNSLKPEETAVYYCAAEYAPSEPSYYYGYDYWGQGTQVTVSS"
result = "high polyreactivity"

[[record]]
sequence_chain = "QVQLVESGGGLVQAGGSLRLSCAASGSIFAFYTMGWYRQAPGKERELVATITRSGRTNYADSVKGRFTISRDNAKNTVYLQMNSLKPEDTAVYYCAAGYLSGNYARYGYWGQGTQVTVSS"
result = "high polyreactivity"

[[record]]
sequence_chain = "QVQLVESGGGLVQAGGSLRLSCAASGSTFLSYAMGWYRQAPGKERELVAVISWSGVSTYYADSVKGRFTISRDNAKNTVYLQMNSLNPEDTEVYYCNTGHHYIRTYGYWGQGTQVTVSS"
result = "low polyreactivity"


Below: the item to evaluate.
stdin: Give the measured polyreactivity (PSR sort gate) for `QVQLVESGGGLVQAGGSLRLSCAASGIIFDGYAMGWYRQAPGKEREFVAVISSSGGTTYYADSVKGRFTISRDNAKNTVYLQMNSLKPEDTAVYYCATLRYSPGWYTRDDYWGQGTQVTVSS`
stdout: low polyreactivity

* * *

test: yeast display, Sf9 membrane polyspecificity reagent, FACS + sequencing; frameworks hold sequencing errors
metric name: polyreactivity (PSR sort gate)

[[record]]
sequence_chain = "QVQLVESGGGLVQAGGSLRLSCAASGFTFVSNDMGWYRQAPGKERELVAAIRYRGGDTYYADSVKGRFTISRDNAKNTVYLQMNSLKPEDTAVYYCAVDVATYTAGWYYHGYDYWGQGTQVTVSS"
metric_name = "polyreactivity (PSR sort gate)"
result = "low polyreactivity"

[[record]]
sequence_chain = "QVQLVESGGGLVQAGGSLRLSCAASGTTSPNAMGWYRQAPGKERELVAAMWSGGTYYADSVKGRFTISRDNAKNTVYLQMNSLKPEDTAVYYCAADGEFRRAWYEGDYWGQGTQVTVSS"
metric_name = "polyreactivity (PSR sort gate)"
result = "low polyreactivity"


* * *

test: yeast display, Sf9 membrane polyspecificity reagent, FACS + sequencing; frameworks hold sequencing errors
metric name: polyreactivity (PSR sort gate)

Check out these entries, answers already filled in.
[[record]]
sequence_chain = "QVQLVESGGGLVQAGGSLRLSCAASGRIFYLYAMGWYRQAPGKERELVATINTSGGITYYADSVKGRFTISRDNAKNTVYLQMNSLKPEDTAVYYCNADWEWLYFYFRPGGYWGQGTQVTVSS"
result = "low polyreactivity"

[[record]]
sequence_chain = "QVHLVESGGGLVQAGGRLRLSCAASGSIFGYNAMGWYRQAPGKERELVAAISSTGGSTYYADSVKGRFTISRDNAKNTVYLQMNSLYPEDTAVYYCAKRGQSYFKGYDYWGQGTQVTVSS"
result = "low polyreactivity"

[[record]]
sequence_chain = "QVQLVESGGGLVHAGGSLRLSCPADGSTFVLNAIGWYRQAPGKERQLVAGISYGTGSTYYADSVKGRFTISRDHAKNTVYLQMNSLKPEDTAVYYCATDFDGYSIGMYYWGQGNQVTVSS"
result = "low polyreactivity"

[[record]]
sequence_chain = "QVQLVESGGGLVQAGGSLRLSCAASGSIFWFNAMGWYRQAPGKERELVAAISTGGGTNYADSVKGRFTISRDNAKNTLYLKMNSLKPEDTAVYYCATYKVSRYISYDYWGQGPQVTVSS"
result = "low polyreactivity"

[[record]]
sequence_chain = "QVQLVESGGGLVQAGGSLRLSCAASGSTLVTYAMGWYRQAPGKERELVAAISWRGGSTYYADSVKGRFTISRDNAKNTVELQMNSLKPEDTAVYYCNKLRAYKESETYYYWGQGTQVTVSS"
result = "low polyreactivity"


stdin: Look up polyreactivity (PSR sort gate) of `QVQLVESGGGLVQAGGSLRLSCAASGRIFPYYAKRWYRQAPGKERELVAAITTRGGSTYDADSVKGRFTISRDNAKNTVYLQMNSLKPEDTAVYYCAAVTFGRMEYCGQGTQVTVSS` and report it.
stdout: low polyreactivity

stdin: For the sequence `QVQLVESGGGLVQEGGSLRLSCAASGFIFVTNAMGWYRQAPGKERELVAAITIGDSTYYADSVKGRFTISRDNAKNTVYLQMNSLKPEDTAVYYCAAEVGFGPGFSTIAYTFDYWGQGTQVTVSS` , give its measured polyreactivity (PSR sort gate) value.
stdout: low polyreactivity

stdin: Report polyreactivity (PSR sort gate) for `QVQLVESGGGLVQAGGSLRLSCAASGSIFKPYAMGWYRQAPGKERELVAAISSSGGSTYYADSVKGRFTISRDNAKNTVYFQMNSLKPEDTAVYYCNADWYYAGYGYWGQGTQVTVSS`
stdout: low polyreactivity

stdin: Identify measured polyreactivity (PSR sort gate) associated with `QVQLVESGGGLVQAGGSLRLSCAASGSISVPYGMGWYRQAPGKERELVAAITGGSTNYADSVKGRFTISRDNAKNTVYLQMNSLKPEDTAVYYCAADVYWYYGAPELWYRYDYWGQGTQVTVSS`
stdout: low polyreactivity

stdin: // fetch polyreactivity (PSR sort gate) given entry `QVQLVESGGGLVQAGGSLRLSCAASGRTFSSYAMGWYRQAPGKERELVARISSSGGRTSYADSVKGRFTISRDNAKNTVYLQMKSLKPEDTAVYYCAKTYHWLYDYWGQGTQVTVSS`
stdout: high polyreactivity

stdin: Let me know recorded polyreactivity (PSR sort gate) for `QVQLEESGGGIVQAGGSLRLSCAASGSTFGVYAMGWYRQAPGKERELVAAISSSTGSTYYADSVKGRFTISRDNAKNTVYLQMNSLKPEYTAVYYCAAAGYGKVRGDYWGQGTQVTVSS` , thanks.
stdout: low polyreactivity
